Test: Half life in female Beagle dog at 4 mg/kg,iv measured upto 24 hrs
Type: ADME, organism-based, Canis lupus familiaris
Details: in vivo
Measurement Type: half-life (min)
Report the figure in min without appending any unit label.

Suppose we examine the compound CC(=O)O[C@@]12CO[C@@H]1C[C@H](O)[C@@]1(C)C(=O)[C@H](O)C3=C(C)[C@@H](OC(=O)[C@H](OC(=O)CCC(=O)NCCCC[C@H](NC(=O)CC[C@@H](NC(=O)[C@H](C)NC(=O)/C=C/c4ccc(F)cc4Cl)C(N)=O)C(=O)O)[C@@H](NC(=O)OC(C)(C)C)c4ccccc4)C[C@@](O)([C@@H](OC(=O)c4ccccc4)[C@H]21)C3(C)C ; what half-life value has been reported? 33.8
